experiment: soluble on expression in E. coli; label from the status in PepcDB or PDB records
measured parameter: soluble on expression in E. coli

seq	reported
MAHHHHHHMKEKYTITPLARRTPNGVLTQVLTEARREAAERLRGMQEMKFTICTDIEEVLFKGRVHVNEMRLNDFLTREPDGRGVVDTNRDVLLEEFFKDPTKYIRDKGALNEIQAFGHYLSMKRAVKGEVIFDEDIRELCDRVSTTYRGGHWLLRR	not soluble
MGSDKIHHHHHHMHVIKAKDDYTYRHTVGVSILSRLIGTWLKLDEVILKELTLGAVLHDIGKVEIPDAILNKPGALTKDEYRIIQDHTVKGYRIIQESGIYSDTVALMALEHHEREDGTGYPYQKTRNEIHLLSKILAVADVFHAMTSDRIYRKGMALYDVLLQMRQDRFGKLEPRITDFFVRRFMEQCIGSKARLNDGSRVEIVFIPYENPICPIVKQGTNYIDLRMSPLYIQELIPVTVKV	not soluble
MGSDKIHHHHHHMNETGLLDAYGTEEKEAYIGVIASIATADRVATEDELEYLNALSEAVGINPDVAEAAAKDRSDESLSKYLNALKGSDLRFSLITDIVSFARSDGRYTADEEEKIKNSCRYLGITDEQVTVLEELVEKSNILITIPEEATDEGFFEKNGFSQMLKKANIPLISIVKGLLGLAAPFVLSKMVRSRSLSGSPAAGGLGGQLGGTVLGTFQAGRIGGLGSILANLNGIRGYADIGTILKKAIDKKEINS	not soluble
